biological target: T1, human FcRn/b2M (human, UniProt P61769 21-119, biotinylated); experiment: SPR off-rate pH 6.0
T1 construct: bought recombinant biotinylated protein (ACRO FCM-H82W4 or Immunitrack ITF01); also called hFcRn; hFcRn/hb2M
T1 sequence (chain, as listed by the source limits assumed, chain 1 of 2): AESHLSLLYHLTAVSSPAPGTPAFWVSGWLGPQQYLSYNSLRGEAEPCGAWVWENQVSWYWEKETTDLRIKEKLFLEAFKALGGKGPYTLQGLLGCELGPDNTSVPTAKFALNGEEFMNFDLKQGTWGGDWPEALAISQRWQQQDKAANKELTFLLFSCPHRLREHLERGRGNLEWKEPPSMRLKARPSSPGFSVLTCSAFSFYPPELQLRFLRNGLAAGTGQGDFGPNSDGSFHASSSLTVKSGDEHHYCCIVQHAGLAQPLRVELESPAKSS
T1 sequence (P61769 21-119 limits assumed, chain 2 of 2): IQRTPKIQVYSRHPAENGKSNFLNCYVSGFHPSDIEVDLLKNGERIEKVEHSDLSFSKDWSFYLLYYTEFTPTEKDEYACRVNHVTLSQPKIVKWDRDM
MEASUREMENT KIND: binding result

Some binders with known binding result results, for comparison:
T026301065 (VHH, name in Kabat numbering, tagless) VHH: EVQLVESGGGVVQPGGSLRLSCAASTFTFSEYDMYWVRQAPGKGLEWVSAISQGGGSTDYADSVKGRFTISRDNSKNTLYLQMNSLRPEDTALYYCAADTLYTDLTWYSYWGQGTLVTVSS: no binding
T026301062 (VHH, name in Kabat numbering, tagless) VHH: EVQLVESGGGVVQPGGSLRLSCAASTFTFSSYDMYWVRQAPGKGLEWVSAISSGGGSTDYADSVKGRFTISRDNSKNTLYLQMNSLRPEDTALYYCAADTLYTDLTWYSYWGQGTLVTVSS: no binding
T026301066 (VHH, name in Kabat numbering, tagless) VHH: EVQLVESGGGVVQPGGSLRLSCAASGFTFSEYAMYWVRQAPGKGLEWVSAISSGGGSTDYADSVKGRFTISRDNSKNTLYLQMNSLRPEDTALYYCAADTLYTDLTKYSYWGQGTLVTVSS: no binding
T026301129 (VHH, name in Kabat numbering, tagless) VHH: EVQLVESGGGVVQPGGSLRLSCAASGFTFSEYDMYWVRQAPGKGLEWVSAISQGGGSTDYADSVKGRFTISRDNSKNTLYLQMNSLRPEDTALYYCAADTLYTDLTKYSYWGQGTLVTVSS: no binding
T026301101 (VHH, name in Kabat numbering, tagless) VHH: EVQLVESGGGVVQPGGSLRLSCAASTFTFSSYAMYWVRQAPGKGLEWVSAISSGGGSTDYADSVKGRFTISRDNSKNTLYLQMNSLRPEDTALYYCAADTLYTDLTKYSYWGQGTLVTVSS: no binding

Kindly note the recorded binding result for T026301068 (VHH, name in Kabat numbering, tagless) VHH: EVQLVESGGGVVQPGGSLRLSCAASGFTFSSYDMYWVRQAPGKGLEWVSAISQGGGSTDYADSVKGRFTISRDNSKNTLYLQMNSLRPEDTALYYCAADTLYTDLTKYSYWGQGTLVTVSS , which is no binding

Kindly note the recorded binding result for T026301114 (VHH, name in Kabat numbering, tagless) VHH: EVQLVESGGGVVQPGGSLRLSCAASTFTFSEYAMYWVRQAPGKGLEWVSAISSGGGSTDYADSVKGRFTISRDNSKNTLYLQMNSLRPEDTALYYCAADTLYTDLTKYSYWGQGTLVTVSS , which is no binding

Kindly note the recorded binding result for T026301095 (VHH, name in Kabat numbering, tagless) VHH: EVQLVESGGGVVQPGGSLRLSCAASGFTFSEYDMYWVRQAPGKGLEWVSAISSGGGSTDYADSVKGRFTISRDNSKNTLYLQMNSLRPEDTALYYCAADTLYTDLTSYSYWGQGTLVTVSS , which is no binding
